# System: p16-3MR mice
# experimental-details: RT-qPCR verification of serum circulating microRNA changes, one-way ANOVA
# Type: in vivo, mouse
# measurement-setup: p<0.05, in words
quantity-measured: change of serum level following senolytic treatment (DOX/GCV compared to DOX)

substance="miR-409-3p: circulating microRNA biomarker, SEQ ID No. 89 (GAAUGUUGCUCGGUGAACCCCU; expressed or natural sequence; listed as Homo sapiens)" experimental_value="significantly changed"
substance="miR-483-5p: circulating microRNA biomarker, SEQ ID No. 91 (AAGACGGGAGGAAAGAAGGGAG; expressed or natural sequence; listed as Homo sapiens)" experimental_value="significantly changed"
substance="miR-375-5p: circulating microRNA biomarker, SEQ ID No. 88 (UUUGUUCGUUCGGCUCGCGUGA; expressed or natural sequence; listed as Homo sapiens)" experimental_value="significantly changed"
